>  <molecule>
CC1(C)OC(c2ccc(-c3ccc(Cl)cc3)cc2)OC1=O (stereo not given)

>  <melting point>
108 to 110 °C

$$$$
>  <molecule>
CC(=O)N(C)c1cccc(OC(CCc2ccc(Cl)cc2)Cn2ccnc2)c1 (stereo not given)

>  <melting point>
229 to 231 °C

$$$$
>  <molecule>
COC(=O)CCn1nnnc1C1N2C(=O)C(NC(c3ccccc3)(c3ccccc3)c3ccccc3)C2SC1(C)C (stereo not given)

>  <melting point>
94 to 98 °C

$$$$
>  <molecule>
CC(C)(C)OC(=O)c1ccc(C=Cc2ccc(C(=O)OC(C)(C)C)cc2)cc1

>  <melting point>
126 to 127 °C

$$$$
>  <molecule>
CC(=O)Nc1cccc(-n2cccc2)c1

>  <melting point>
134 to 136 °C

$$$$
>  <molecule>
O=[N+]([O-])c1ccc(CO)c([N+](=O)[O-])c1

>  <melting point>
105 to 110 °C

$$$$
>  <molecule>
N#CC(=C(Nc1ccc2c(c1)OCO2)NC1CCC1)S(=O)(=O)c1ccc(Cl)cc1

>  <melting point>
190 °C

$$$$
>  <molecule>
CCCc1nc(CO)c(C(=O)OCC)n1Cc1ccc(-c2ccccc2C(=O)OC(C)(C)C)cc1

>  <melting point>
108 to 110 °C

$$$$
>  <molecule>
COc1ccc(C(=O)Nc2cc(-c3c(-c4ccc(F)c(C)c4)nc4ccc(N(C)C)nn34)ccn2)cc1

>  <melting point>
224 to 225 °C

$$$$
>  <molecule>
O=[N+]([O-])c1cnccc1NCc1c(F)cccc1F

>  <melting point>
148 to 149 °C

$$$$
>  <molecule>
CC(CSC#N)C(=O)O (stereo not given)

>  <melting point>
24 to 25 °C

$$$$
>  <molecule>
Cc1cnc2c(c1)CCCC2NC(N)=S (stereo not given)

>  <melting point>
114 °C

$$$$
>  <molecule>
COC(=O)C1(C(=O)Nc2ccc(Br)cc2C)CC1

>  <melting point>
106 to 108 °C

$$$$
>  <molecule>
CC1OC(=O)C2C1C1CCC2(OC(=O)C(C)(C)C)O1 (stereo not given)

>  <melting point>
114 to 115 °C

$$$$
>  <molecule>
Oc1ccc(Nc2cc(-c3cn(C(c4ccccc4)(c4ccccc4)c4ccccc4)nc3-c3ccccn3)ccn2)cc1

>  <melting point>
198 °C

$$$$
>  <molecule>
O=C(C1CCCCC1)N1CC(=S)N2CCCc3ccccc3C2C1 (stereo not given)

>  <melting point>
150 to 151 °C

$$$$
>  <molecule>
COCCNC(=O)c1cccc(-c2ccc(F)c3cc(Cc4cccc(S(C)(=O)=O)c4)sc23)c1

>  <melting point>
158 to 159 °C

$$$$
>  <molecule>
CCNC(=O)c1ccc(-n2nnc(C(=O)NC3CC3)c2CNCc2ccccc2)cc1

>  <melting point>
153 °C

$$$$
>  <molecule>
CCCc1ccc(-n2nc(Cl)cc2-c2ccc(S(C)(=O)=O)cc2)cc1

>  <melting point>
143 to 144 °C

$$$$
>  <molecule>
CC(C)OC(=O)N1CC(=S)Nc2ccc(-c3cccc(Cl)c3)cc21

>  <melting point>
208 to 212 °C

$$$$
